Measured Cmax at 5 min of individual entries
- PROTOCOL_SUMMARY: Pharmacokinetic study in male Sprague-Dawley rats (IV and PO), plasma
- Assay type: in vivo, rat
- CONDITION_SUMMARY: male, Sprague-Dawley; rat plasma, IV, 3 mg/kg
- Procedure: Pharmacokinetic studies were conducted to estimate plasma concentrations obtained after oral gavage (PO) and intravenous (IV) single administration of compounds administered to male Sprague-Dawley rats. […] The in-vivo study plasma samples were analyzed using Ultra Performance Liquid Chromatography (UPLC) with tandem mass spectrometry (MS/MS) detection in multiple reaction monitoring (MRM) mode. […]
MEASURED_ENDPOINT: Cmax at 5 min (ng/mL)

RECORD_SMILES: O=C(COc1cnc(N[C@H]2CC[C@@H](Oc3nc(N4CCOCC4)cc4ncccc34)CC2)nc1)N1CCOCC1
READOUT_VALUE: 1600

RECORD_SMILES: CN1CCN(CCOc2cnc(N[C@H]3CC[C@@H](Oc4nc(N5CCOCC5)cc5ncccc45)CC3)nc2)CC1
READOUT_VALUE: 183

RECORD_SMILES: CN(C)C(=O)Cn1ccc2nc(N[C@H]3CC[C@@H](Oc4nc(N5CCOCC5)cc5ncccc45)CC3)ncc21
READOUT_VALUE: 886

###

- Test system: pH2AX induction in HCT116 ATM-/- multicellular tumour spheroids
- PROTOCOL_SUMMARY: Prodrug Radiation Sensitization in Multicellular Tumour Spheroids, inhibition of pH2AX induction following radiation
- Type: cell-based
- CONDITION_SUMMARY: Homo sapiens, HCT-116, 20 Gy, 5% O2, inner layers, read-out: Prodrug 5% O2 Inner layers EC50

COMPOUND: CC(c1cnn(C)c1[N+](=O)[O-])N(c1cnc2cc(N3CCOCC3)nc(O[C@H]3CC[C@@H](Nc4ncc(OCCN(C)C)cn4)CC3)c2c1)S(C)(=O)=O (stereo partly drawn)
EC50: 10 to 500 nM
//
COMPOUND: CC(c1cnn(C)c1[N+](=O)[O-])N(c1cnc2cc(N3CCOCC3)nc(OC3CCC(Nc4ccn5nccc5n4)CC3)c2c1)S(C)(=O)=O (stereo not drawn)
EC50: 10 to 500 nM
//
COMPOUND: Cn1c(COc2cnc3cc(N4CCOCC4)nc(O[C@H]4CC[C@@H](c5cnccn5)CC4)c3c2)cnc1[N+](=O)[O-]
EC50: 10 to 500 nM
//
COMPOUND: CN1CCC(Oc2cnc(N[C@H]3CC[C@@H](Oc4nc(N5CCOCC5)cc5ncc(N(Cc6cnn(C)c6[N+](=O)[O-])S(C)(=O)=O)cc45)CC3)nc2)C1 (stereo partly drawn)
EC50: 10 to 500 nM
//
COMPOUND: CC(Oc1cnc2cc(N3CCOCC3)nc(O[C@H]3CC[C@@H](Nc4ncc(OCCN5CCOCC5)cn4)CC3)c2c1)c1cnc([N+](=O)[O-])n1C (stereo partly drawn)
EC50: 10 to 500 nM
//
COMPOUND: Cn1c(CN(c2cnc3cc(N4CCOCC4)nc(OC4CCC(NC(=O)c5ncccn5)CC4)c3c2)S(C)(=O)=O)cnc1[N+](=O)[O-] (stereo not drawn)
EC50: 1000 to 10000 nM

###

- System: FaDu cell line
- PROTOCOL_SUMMARY: Prodrug Activation in Hypoxic Stirred Tumour Cell Suspensions
- CONDITION_SUMMARY: 10 μM, 4 hours, 5% O2
MEASURED_ENDPOINT: Fraction of prodrug converted to active form, Oxic 5% O2

MOLECULE: CC(Oc1cnc2cc(N3CCOCC3)nc(OC3CCC(Nc4ncc(OCCN5CCN(C)CC5)cn4)CC3)c2c1)c1cnn(C)c1[N+](=O)[O-] (stereo not shown)
SYSTEM_TESTED: FaDu cell line
READOUT_VALUE: D (D is 0 to 0.02)
--
MOLECULE: Cn1c(CN(c2cnc3cc(N4CCOCC4)nc(OC4CCC(Nc5ncc(N6CCN(CC(F)(F)F)CC6)cn5)CC4)c3c2)S(C)(=O)=O)cnc1[N+](=O)[O-] (stereo not shown)
SYSTEM_TESTED: FaDu cell line
READOUT_VALUE: D (D is 0 to 0.02)
--
MOLECULE: CC(c1cnc([N+](=O)[O-])n1C)N(c1cnc2cc(N3CCOCC3)nc(OC3CCC(Nc4ncc(N5CCN(CC(F)F)CC5)cn4)CC3)c2c1)S(C)(=O)=O (stereo not shown)
SYSTEM_TESTED: FaDu cell line
READOUT_VALUE: D (D is 0 to 0.02)

###

- PROTOCOL_SUMMARY: Pharmacokinetic study in male Beagle dogs (IV and PO), plasma
- Type: in vivo, dog
- CONDITION_SUMMARY: male, Beagle; dog plasma, IV, 3 mg/kg; read-out: AUCINF—obs
Measured AUC(0-inf) of individual entries

RECORD_SMILES: O=C(COc1cnc(N[C@H]2CC[C@@H](Oc3nc(N4CCOCC4)cc4ncccc34)CC2)nc1)N1CCOCC1
AUC(0-inf), ng·h/mL: 3500
//
RECORD_SMILES: CN(C)C(=O)Cn1ccc2nc(N[C@H]3CC[C@@H](Oc4nc(N5CCOCC5)cc5ncccc45)CC3)ncc21
AUC(0-inf), ng·h/mL: 1850
//
RECORD_SMILES: CN1CCN(CCOc2cnc(N[C@H]3CC[C@@H](Oc4nc(N5CCOCC5)cc5ncccc45)CC3)nc2)CC1
AUC(0-inf), ng·h/mL: 1560

###

Measured pIC50 of individual entries
- SYSTEM_TESTED: DNA-PK phosphorylation at Serine 2056 (Homo sapiens, UniProt P78527)
- Construct: FaDu cells were purchased from ATCC; host or cells: FaDu
- PROTOCOL_SUMMARY: Cellular Assay for Inhibition of DNA-PK Phosphorylation at Serine 2056 in FaDu cells (sandwich ELISA, neocarzinostatin)
- Type: cell-based
- CONDITION_SUMMARY: pSer2056 DNA-PK, neocarzinostatin 1 μg/mL, Table 1
pIC50: −log10 of the molar value.

MOLECULE: O=C(Nc1ccccn1)[C@H]1CC[C@@H](Oc2nc(N3CCOCC3)cc3ncccc23)CC1 [Compound 154c]
pIC50: 6.00 to 7.00
--
MOLECULE: Cn1cc(-c2cnc3cc(N4CCOCC4)nc(O[C@H]4CC[C@@H](n5ccnc5)CC4)c3c2)cn1
pIC50: 6.00 to 7.00
--
MOLECULE: CN(C)C(=O)COc1ccc(N[C@H]2CC[C@@H](Oc3nc(N4CCOCC4)cc4ncccc34)CC2)nc1
pIC50: 6.00 to 7.00
--
MOLECULE: CN(C)C(=O)Cn1c(=O)n(C)c2nc(N[C@H]3CC[C@@H](Oc4nc(N5CCOCC5)cc5ncccc45)CC3)ncc21
pIC50: > 7.00
--
MOLECULE: O=S(=O)(Nc1cnc2cc(N3CCOCC3)nc(O[C@H]3CC[C@@H](Nc4ncccn4)CC3)c2c1)C1CCC1
pIC50: 6.00 to 7.00
--
MOLECULE: CS(=O)(=O)c1cnc2cc(N3CCOCC3)nc(O[C@H]3CC[C@@H](Nc4ncc(OCC(=O)N5CCOCC5)cn4)CC3)c2c1 [Compound 204a]
pIC50: 6.00 to 7.00
--
MOLECULE: CNC(=O)COc1cnc(N[C@H]2CC[C@@H](Oc3nc(N4CCOCC4)cc4ncccc34)CC2)nc1
pIC50: > 7.00

###

- PROTOCOL_SUMMARY: Pharmacokinetic study in mice (IV and PO), plasma
- Type: in vivo, mouse
- CONDITION_SUMMARY: female, C57BL/6; mouse plasma, IV, 1 mg/kg; read-out: AUCINF—obs
MEASURED_ENDPOINT: AUC(0-inf) (ng·h/mL)

COMPOUND: CN(C)C(=O)COc1cnc(N[C@H]2CC[C@@H](Oc3nc(N4CCOCC4)cc4ncccc34)CC2)nc1 [Compound 54]
MEASURED_ENDPOINT: AUC(0-inf)
UNIT_INFO: ng·h/mL
READOUT_VALUE: 3710

###

Measured pIC50 of individual entries
- SYSTEM_TESTED: DNA-PK phosphorylation at Serine 2056 (Homo sapiens, UniProt P78527)
- Construct: FaDu cells were purchased from ATCC; host or cells: FaDu
- PROTOCOL_SUMMARY: Cellular Assay for Inhibition of DNA-PK Phosphorylation at Serine 2056 in FaDu cells (sandwich ELISA, neocarzinostatin)
- Format: cell-based
- CONDITION_SUMMARY: pSer2056 DNA-PK, neocarzinostatin 1 μg/mL, Table 1
pIC50: −log10 of the molar value.

COMPOUND: CONC(=O)COc1cnc(N[C@H]2CC[C@@H](Oc3nc(N4CCOCC4)cc4ncccc34)CC2)nc1
SYSTEM_TESTED: DNA-PK phosphorylation at Serine 2056 (Homo sapiens, UniProt P78527)
pIC50: > 7.00

COMPOUND: CN(C)C(=O)COc1cnc(N[C@H]2CC[C@@H](Oc3nc(N4CCOCC4)cc4ncc(C(=O)O)cc34)CC2)nc1
SYSTEM_TESTED: DNA-PK phosphorylation at Serine 2056 (Homo sapiens, UniProt P78527)
pIC50: 4.52 to 5.00

COMPOUND: CON(C)C(=O)COc1cnc(N[C@H]2CC[C@@H](Oc3nc(N4CCOCC4)cc4ncccc34)CC2)nc1
SYSTEM_TESTED: DNA-PK phosphorylation at Serine 2056 (Homo sapiens, UniProt P78527)
pIC50: 6.00 to 7.00

COMPOUND: CN(C)C(=O)COc1ccnc(N[C@H]2CC[C@@H](Oc3nc(N4CCOCC4)cc4ncccc34)CC2)n1
SYSTEM_TESTED: DNA-PK phosphorylation at Serine 2056 (Homo sapiens, UniProt P78527)
pIC50: 6.00 to 7.00

COMPOUND: O=S(=O)(CF)Nc1cnc2cc(N3CCOCC3)nc(O[C@H]3CC[C@@H](Nc4ncccn4)CC3)c2c1
SYSTEM_TESTED: DNA-PK phosphorylation at Serine 2056 (Homo sapiens, UniProt P78527)
pIC50: 6.00 to 7.00

COMPOUND: O=S(=O)(CC(F)F)Nc1cnc2cc(N3CCOCC3)nc(O[C@H]3CC[C@@H](Nc4ncccn4)CC3)c2c1
SYSTEM_TESTED: DNA-PK phosphorylation at Serine 2056 (Homo sapiens, UniProt P78527)
pIC50: 6.00 to 7.00

COMPOUND: CN(C)C(=O)COc1cnc(N[C@H]2CC[C@@H](Oc3nc(N4CCOCC4)cc4ncccc34)CC2)nc1
SYSTEM_TESTED: DNA-PK phosphorylation at Serine 2056 (Homo sapiens, UniProt P78527)
pIC50: > 7.00

COMPOUND: CS(=O)(=O)c1cnc2cc(N3CCOCC3)nc(O[C@H]3CC[C@@H](Nc4ncnc5ccoc45)CC3)c2c1 [Compound 204b]
SYSTEM_TESTED: DNA-PK phosphorylation at Serine 2056 (Homo sapiens, UniProt P78527)
pIC50: > 7.00

COMPOUND: c1cnc2cc(N3CCOCC3)nc(O[C@H]3CC[C@@H](Nc4ncc(OCc5ncco5)cn4)CC3)c2c1
SYSTEM_TESTED: DNA-PK phosphorylation at Serine 2056 (Homo sapiens, UniProt P78527)
pIC50: 6.00 to 7.00

COMPOUND: Cn1c(=O)n(C2CCOCC2)c2nc(N[C@H]3CC[C@@H](Oc4nc(N5CCOCC5)cc5ncccc45)CC3)ncc21
SYSTEM_TESTED: DNA-PK phosphorylation at Serine 2056 (Homo sapiens, UniProt P78527)
pIC50: > 7.00

COMPOUND: c1cnc2cc(N3CCOCC3)nc(O[C@H]3CC[C@@H](Nc4ncc(OCCN5CCNCC5)cn4)CC3)c2c1
SYSTEM_TESTED: DNA-PK phosphorylation at Serine 2056 (Homo sapiens, UniProt P78527)
pIC50: > 7.00

Each recorded value in this set is attributed to patent US20240239790A1.
